experiment: AUC in CD-1 mouse at 30 mg/kg, ip; assay type: ADME, organism-based; conditions: in vivo
measurement.kind: AUC (µM·h)
Only the number, expressed in µM·h, is required.

The compound listed as `CC1(C)CCC(Nc2ncnc3c2nn2ccccc32)CC1` shows AUC equal to 2.86

---

molecular target: Metabotropic glutamate receptor 5 (Rattus norvegicus, UniProt P31424); test: Negative allosteric modulation of rat mGluR5 expressed in HEK293 cells assessed as inhibition of glutamate induced calcium mobilization by calcium mobilization assay; assay type: functional, cell-based; details: read-out: pIC50 (converted)
Sequence (P31424 whole entry): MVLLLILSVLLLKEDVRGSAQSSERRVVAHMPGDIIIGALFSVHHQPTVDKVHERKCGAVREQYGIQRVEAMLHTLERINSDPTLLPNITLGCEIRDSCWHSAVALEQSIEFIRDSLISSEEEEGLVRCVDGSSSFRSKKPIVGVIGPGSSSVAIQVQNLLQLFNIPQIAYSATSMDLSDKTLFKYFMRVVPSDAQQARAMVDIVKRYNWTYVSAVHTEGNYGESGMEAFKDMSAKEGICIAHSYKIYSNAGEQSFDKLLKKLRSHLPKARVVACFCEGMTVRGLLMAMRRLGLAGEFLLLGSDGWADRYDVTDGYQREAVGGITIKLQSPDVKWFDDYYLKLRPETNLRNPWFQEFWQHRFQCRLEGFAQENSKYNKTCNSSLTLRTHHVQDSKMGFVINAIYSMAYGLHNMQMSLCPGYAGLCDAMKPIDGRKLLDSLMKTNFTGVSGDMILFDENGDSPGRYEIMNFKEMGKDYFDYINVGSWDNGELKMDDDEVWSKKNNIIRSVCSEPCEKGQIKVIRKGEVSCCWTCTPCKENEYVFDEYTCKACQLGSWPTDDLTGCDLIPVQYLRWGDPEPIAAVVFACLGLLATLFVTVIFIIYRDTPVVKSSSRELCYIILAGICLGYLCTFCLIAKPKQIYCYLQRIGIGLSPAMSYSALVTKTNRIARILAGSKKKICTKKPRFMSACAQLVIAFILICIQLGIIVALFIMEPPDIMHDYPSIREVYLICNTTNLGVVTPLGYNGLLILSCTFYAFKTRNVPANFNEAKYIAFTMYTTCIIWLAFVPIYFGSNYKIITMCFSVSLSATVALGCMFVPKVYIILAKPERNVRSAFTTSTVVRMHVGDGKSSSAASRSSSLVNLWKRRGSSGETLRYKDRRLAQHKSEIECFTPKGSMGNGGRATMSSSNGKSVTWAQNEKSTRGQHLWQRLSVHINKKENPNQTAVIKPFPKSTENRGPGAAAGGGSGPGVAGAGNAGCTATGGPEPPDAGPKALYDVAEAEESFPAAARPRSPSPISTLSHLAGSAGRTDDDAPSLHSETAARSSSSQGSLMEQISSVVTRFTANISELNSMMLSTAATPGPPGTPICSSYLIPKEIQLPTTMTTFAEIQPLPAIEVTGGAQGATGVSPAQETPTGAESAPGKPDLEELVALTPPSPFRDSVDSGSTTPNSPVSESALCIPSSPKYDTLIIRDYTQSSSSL
measurement.kind: IC50

Example entries and their recorded answers appear below.
Measured IC50, `c1ccn2nc3c(NC4CCCCC4)ncnc3c2c1` : > 31.6 µM

Kindly note the recorded IC50 for `CC(C)Nc1nc(N[C@H]2CC[C@H](C)CC2)c2nn3ccccc3c2n1` , which is > 31.6 µM

---
Memo: `c1ccn2nc3c(N[C@H]4C[C@@H]5CC[C@H]4C5)ncnc3c2c1` , reported IC50: > 10 µM

The reported value for `CC1(C)[C@@H]2CC[C@]1(C)[C@@H](Nc1ncnc3c1nn1ccccc31)C2` in terms of IC50 is > 31.6 µM

Quick note, IC50 for `CN(C)c1nc(N[C@H]2CC[C@H](C)CC2)c2nn3ccccc3c2n1` landed at > 31.6 µM

---

biological target: Metabotropic glutamate receptor 5 (Rattus norvegicus); assay: Negative allosteric modulation of rat mGluR5 expressed in HEK293 cells assessed as inhibition of glutamate induced calcium mobilization by calcium mobilization assay; format: functional, cell-based; conditions: read-out: IC50
List of IC50 values.

Worked set:
Per the record, `CC(C)(C)CCNc1ncnc2c1nn1ccccc21` has IC50 of 3.6 µM

Data point: `CN(C)c1nc(N[C@H]2CC[C@H](C)CC2)c2nn3ccccc3c2n1` ; IC50 = > 30 µM

# IC50 (compound: `CC1(C)CCC(Nc2ncnc3c2nn2ccccc32)CC1` ) is 0.129 µM

Noted for c1ccn2nc3c(NC4C5CC6CC(C5)CC4C6)ncnc3c2c1 (stereo unspecified) : its IC50 reads 1.75 µM

IC50 reported for this compound `C[C@H](Nc1ncnc2c1nn1ccccc21)C(C)(C)C` : > 30 µM

Next:
Data point: `CNc1nc(N[C@H]2CC[C@H](C)CC2)c2nn3ccccc3c2n1` ; IC50 = > 30 µM

The measured IC50 associated with `OC12CC3CC(C1)CC(Nc1ncnc4c1nn1ccccc41)(C3)C2` reads > 30 µM

Form field IC50, entry `Cc1nc(N[C@H]2C[C@H]3CC[C@@]2(C)C3(C)C)c2nn3ccccc3c2n1` : > 30 µM

---

Quick reference: pIC50 of the listed items.
target: Metabotropic glutamate receptor 5 (Rattus norvegicus, UniProt P31424); test: Negative allosteric modulation of rat mGluR5 expressed in HEK293 cells assessed as inhibition of glutamate induced calcium mobilization by calcium mobilization assay; type: functional, cell-based; conditions: read-out: IC50
pIC50: −log10 of the molar value.

Memo: `c1ccn2nc3c(NC45CC6CC(CC(C6)C4)C5)ncnc3c2c1` , reported pIC50: 5.63

Sample `C[C@@H](Nc1ncnc2c1nn1ccccc21)C(C)(C)C` ; pIC50 observed: < 4.52

Next compound, pIC50 to be filled in.
Kindly note the recorded pIC50 for `C[C@@H](Nc1ncnc2c1nn1ccccc21)C1CCCCC1` , which is < 5.00
